src = patent EP3057951B1

Molecular target: wild type human RORγt LBD (Homo sapiens, UniProt P51449)
Construct: expressed in transfected cells; host or cells: HEK293T
Sequence (P51449 258-518): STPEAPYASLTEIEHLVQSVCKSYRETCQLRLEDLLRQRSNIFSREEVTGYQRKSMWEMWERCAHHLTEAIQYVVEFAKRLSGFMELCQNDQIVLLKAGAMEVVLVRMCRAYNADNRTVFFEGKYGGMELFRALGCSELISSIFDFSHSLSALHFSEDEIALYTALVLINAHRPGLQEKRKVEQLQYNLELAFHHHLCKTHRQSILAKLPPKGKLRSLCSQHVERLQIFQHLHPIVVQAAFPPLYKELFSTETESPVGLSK
Assay: RORγt (LBD) Reporter Assay (GAL4-luciferase, HEK293T cells)
Format: cell-based
Details: HEK293T cells; value after the comma with ∼, > or < could not be included in the average
pIC50: −log10 of the molar value.
observedProperty: pIC50

compound="Cn1cc(-c2nc3ccc(C(O)(c4ccc(C(F)(F)F)nc4)c4cncn4C)cc3c(Cl)c2Cc2ccccc2)cn1 (single isomer, unassigned) [Example 111c]" experimentalresult=~5.30
compound="COc1nc2ccc(C(O)(c3ccc(C)nc3C)c3cnnn3C)cc2c(Cl)c1Cc1ccc(N(C)C)cc1 (single isomer, unassigned) [Example 24b]" experimentalresult=~6.66
compound="COc1c(Cc2ccccc2)c(C(F)(F)F)nc2ccc(C(O)(c3ccc(C(F)(F)F)nc3)c3cncn3C)cc12 (single isomer, unassigned) [Example 106c]" experimentalresult=~5.30
compound="Cn1cc(-c2nc3ccc(C(O)(c4ccc(C(F)(F)F)nc4)c4cncn4C)cc3c(Cl)c2Cc2ccccc2)cn1 (single isomer, unassigned) [Example 111b]" experimentalresult=~6.05
